These measurements were taken from patent US11696914B1.

# testSummary: in vitro
# settings: non-human primate, microsomes
assayReadout: half-life
A complete answer gives the number followed by the unit.

May I ask what half-life has been recorded for `COc1ccc2c(c1)[C@]13CCCC[C@@H]1[C@H](C2)N(C)CC3` ?
5.7 min

###

# Test system: Vero 76
# settings: African green monkey
assayReadout: CC50 (µM)
Quick reminder: number only, in µM, skip the unit.

May I ask what CC50 has been recorded for CCN(CC)CCOc1ccc2c(c1)C(=O)c1cc(OCCN(CC)CC)ccc1-2 [Tilorone] ?
32

###

# testSummary: in vitro
# settings: mouse, microsomes, Dextromethorphan t1/2
assayReadout: half-life (min)
Quick reminder: number only, in min, skip the unit.

May I ask what half-life has been recorded for `COc1ccc2c(c1)[C@]13CCCC[C@@H]1[C@H](C2)N(C)CC3` ?
16.2

###

# testSummary: in vivo
# settings: female, Hartley, guinea pig, po, 30 mg/kg, T1/2
assayReadout: half-life (h)
Quick reminder: number only, in h, skip the unit.

May I ask what half-life has been recorded for CCN(CC)CCOc1ccc2c(c1)C(=O)c1cc(OCCN(CC)CC)ccc1-2 [Tilorone] ?
14.3

###

# settings: mouse, microsomes
Recorded t1/2 values for a group of compounds are listed next.
Quick reminder: number only, in h, skip the unit.

Examples with their reported t1/2 follow.
May I ask what t1/2 has been recorded for `CCN(CC)CCOc1ccc2c(c1)C(=O)c1cc(OCCN(CC)CC)ccc1-2` ?
1.712

May I ask what t1/2 has been recorded for CCN(CC)CCCC(C)Nc1ccnc2cc(Cl)ccc12 (stereo not shown) ?
0.788

As a next step, examine the compound that follows.
May I ask what t1/2 has been recorded for CCN(CC)CCCC(C)Nc1c2ccc(Cl)cc2nc2ccc(OC)cc12 (stereo not shown) ?
0.21

###

# testSummary: in vivo
# settings: male, Hartley, guinea pig, po, 200 mg/kg, T1/2
assayReadout: half-life (h)
Quick reminder: number only, in h, skip the unit.

May I ask what half-life has been recorded for `CCN(CC)CCOc1ccc2c(c1)C(=O)c1cc(OCCN(CC)CC)ccc1-2` ?
29

###

# settings: human, microsomes
assayReadout: Dextromethorphan: compound, t1/2 normalized to dextromethorphan control

May I ask what Dextromethorphan: compound, t1/2 normalized to dextromethorphan control has been recorded for CCN(CC)CCOc1ccc2c(c1)C(=O)c1cc(OCCN(CC)CC)ccc1-2 [Tilorone] ?
6.5

New cases:
May I ask what Dextromethorphan: compound, t1/2 normalized to dextromethorphan control has been recorded for CCN(CC)CCCC(C)Nc1ccnc2cc(Cl)ccc12 (stereo not shown) [Chloroquine] ?
10.3

May I ask what Dextromethorphan: compound, t1/2 normalized to dextromethorphan control has been recorded for COc1ccc2nc3cc(Cl)ccc3c(Nc3cc(CN4CCCC4)c(O)c(CN4CCCC4)c3)c2n1 [Pyronaridine] ?
6.2

May I ask what Dextromethorphan: compound, t1/2 normalized to dextromethorphan control has been recorded for CCN(CC)CCCC(C)Nc1c2ccc(Cl)cc2nc2ccc(OC)cc12 (stereo not shown) [Quinacrine] ?
1.4

###

# testSummary: in vivo
# settings: male, Hartley, guinea pig, po, 30 mg/kg, Tmax
assayReadout: Tmax (h)
Quick reminder: number only, in h, skip the unit.

May I ask what Tmax has been recorded for `CCN(CC)CCOc1ccc2c(c1)C(=O)c1cc(OCCN(CC)CC)ccc1-2` ?
1

###

# testSummary: in vivo
# settings: female, Hartley, guinea pig, po, 100 mg/kg, Cmax Mean
assayReadout: Cmax
A complete answer gives the number followed by the unit.

May I ask what Cmax has been recorded for `CCN(CC)CCOc1ccc2c(c1)C(=O)c1cc(OCCN(CC)CC)ccc1-2` ?
384 ng/mL
